src = paper PMC10928148

STUDY_TARGET: T1, Wuhan-Hu-1 S protein on plant-produced virus-like particles (Severe acute respiratory syndrome …, UniProt P0DTC2)
T1 construct: also called SARS-CoV-2 VLPs (Wuhan variant)
EXPERIMENT_NOTES: ELISA
REPORTED_CONDITIONS: both partners purified
# Lookup of reported pEC50 keyed by entry
pEC50 here: minus log base 10 of the concentration, concentration in moles per litre.

binder="COVA2-15 secretory IgA1 (antibody, V domains shown) VH: QVQLLESGGGLVQPGGSLRLSCAASGFTFSSYAMSWVRQAPGKGLEWASAISGSGGSTYYADSVEGRFTISRDNSKNTLYLQMNSLRAEDTAVYYCAKDTGYCGDDCYIKLIRGGPDYWGQGTLVTVSS VL: DIVMTQSPLSLPVTLGQPASISCRSSQSLVYSDGNTFLNWFQQRPGQSPRRLIYQVSNRDSGVPDRFSGSGSGTDFTLKISRVEAEDVGVYYCMQGTHWPRTFGQGTKLEIK" meas_value=11.00
binder="COVA2-15 secretory IgA2 (antibody, V domains shown) VH: QVQLLESGGGLVQPGGSLRLSCAASGFTFSSYAMSWVRQAPGKGLEWASAISGSGGSTYYADSVEGRFTISRDNSKNTLYLQMNSLRAEDTAVYYCAKDTGYCGDDCYIKLIRGGPDYWGQGTLVTVSS VL: DIVMTQSPLSLPVTLGQPASISCRSSQSLVYSDGNTFLNWFQQRPGQSPRRLIYQVSNRDSGVPDRFSGSGSGTDFTLKISRVEAEDVGVYYCMQGTHWPRTFGQGTKLEIK" meas_value=10.77
binder="COVA2-15 monomeric IgA1 (antibody, V domains shown) VH: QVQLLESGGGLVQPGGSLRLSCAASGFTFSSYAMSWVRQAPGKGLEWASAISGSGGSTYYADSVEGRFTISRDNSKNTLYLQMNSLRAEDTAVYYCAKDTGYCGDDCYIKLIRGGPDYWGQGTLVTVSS VL: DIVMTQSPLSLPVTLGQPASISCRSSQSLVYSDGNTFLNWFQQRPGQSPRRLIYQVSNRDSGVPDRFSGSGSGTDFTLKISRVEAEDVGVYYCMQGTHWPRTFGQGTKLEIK" meas_value=10.27

Request: So what does the record say about pEC50 for COVA2-15 IgG (antibody, V domains shown) VH: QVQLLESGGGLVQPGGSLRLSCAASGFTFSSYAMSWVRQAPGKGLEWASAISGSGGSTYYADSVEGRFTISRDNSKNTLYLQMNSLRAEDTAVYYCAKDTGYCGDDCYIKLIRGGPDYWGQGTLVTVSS VL: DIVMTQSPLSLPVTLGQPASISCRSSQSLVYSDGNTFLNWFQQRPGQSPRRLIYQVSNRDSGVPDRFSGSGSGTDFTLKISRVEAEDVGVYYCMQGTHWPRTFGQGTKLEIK ?
Result: 10.49
